- Method description: Oral bioavailability in Sprague-Dawley rat at 3 mg/kg measured upto 24 hrs by UPLC analysis
- Type: ADME, organism-based
- Study conditions: in vivo

{"columns": ["Substance smiles", "bioavailability"],
 "data": [
  ["N#CCc1cnc(-c2ccc3ccccc3c2)n1-c1ccnc(N[C@H]2CCCN(C(=O)C3CC3)C2)n1", "15.7%"],
  ["N#CCc1cnc(-c2ccc3c(c2)CCO3)n1-c1ccnc(N[C@H]2CCCN(C(=O)C3CC3)C2)n1", "86.2%"]
]}

###

- Experimental system: Mitogen-activated protein kinase 8 (Homo sapiens)
- Sequence (P45983 whole entry): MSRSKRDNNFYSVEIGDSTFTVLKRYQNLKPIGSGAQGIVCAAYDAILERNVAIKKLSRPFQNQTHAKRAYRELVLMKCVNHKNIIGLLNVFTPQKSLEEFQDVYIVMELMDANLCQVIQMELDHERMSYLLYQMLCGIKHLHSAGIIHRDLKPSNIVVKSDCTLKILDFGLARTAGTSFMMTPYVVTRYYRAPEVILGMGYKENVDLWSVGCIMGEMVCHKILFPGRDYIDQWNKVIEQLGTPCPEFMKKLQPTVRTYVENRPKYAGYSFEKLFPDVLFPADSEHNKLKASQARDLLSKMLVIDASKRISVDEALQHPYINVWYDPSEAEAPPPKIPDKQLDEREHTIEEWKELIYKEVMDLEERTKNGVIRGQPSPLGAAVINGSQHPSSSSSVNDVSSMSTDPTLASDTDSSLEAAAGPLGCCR
- Method description: Inhibition of JNK1 (unknown origin) by ATP-competitive assay
pIC50: −log10 of the molar value.

{"columns": ["Compound", "pIC50"],
 "data": [
  ["O=C1c2ccccc2C2=NNC3=CC=CC1C32 (stereo unspecified)", 7.40]
]}

Values from ChEMBL document CHEMBL5385844
